Data provenance: patent US20240270715A1

Assay: Caco-2 permeability assay (CacoReady kit)
Assay type: in vitro ADME
Settings: human
This listing pairs molecules with measured Papp.

// solved cases for Papp follow
[
  {
    "molecule": "CCNC(=O)C(=O)CC[C@H](NC(=O)[C@@H]1CCCCN1)C(=O)Nc1cccn(CC(=O)NC2C3CC4CC2CC(Cl)(C4)C3)c1=O (stereo partly drawn)",
    "Papp": "< 1 ×10⁻⁶ cm/s"
  },
  {
    "molecule": "CCNC(=O)C(=O)CC[C@H](NC(=O)c1oc(Br)cc1C)C(=O)Nc1cccn(CC(=O)NC2C3CC4CC(C3)CC2C4)c1=O (stereo partly drawn)",
    "Papp": "1 to 10 ×10⁻⁶ cm/s"
  }
]

Here is the next item to consider.
The molecule "CCNC(=O)C(=O)CC[C@H](NC(=O)c1coc(C(C)=O)n1)C(=O)Nc1cccn(CC(=O)NC23CC(C2)C3)c1=O" showed Papp equal to < 1 ×10⁻⁶ cm/s
